Target Entity: ΔF508-CFTR (Homo sapiens, UniProt P13569, DEL508-508)
Construct: host or cells: CFBE41o-, doxycycline-inducible
Sequence (P13569 with tags, fused parts or gaps DEL508-508): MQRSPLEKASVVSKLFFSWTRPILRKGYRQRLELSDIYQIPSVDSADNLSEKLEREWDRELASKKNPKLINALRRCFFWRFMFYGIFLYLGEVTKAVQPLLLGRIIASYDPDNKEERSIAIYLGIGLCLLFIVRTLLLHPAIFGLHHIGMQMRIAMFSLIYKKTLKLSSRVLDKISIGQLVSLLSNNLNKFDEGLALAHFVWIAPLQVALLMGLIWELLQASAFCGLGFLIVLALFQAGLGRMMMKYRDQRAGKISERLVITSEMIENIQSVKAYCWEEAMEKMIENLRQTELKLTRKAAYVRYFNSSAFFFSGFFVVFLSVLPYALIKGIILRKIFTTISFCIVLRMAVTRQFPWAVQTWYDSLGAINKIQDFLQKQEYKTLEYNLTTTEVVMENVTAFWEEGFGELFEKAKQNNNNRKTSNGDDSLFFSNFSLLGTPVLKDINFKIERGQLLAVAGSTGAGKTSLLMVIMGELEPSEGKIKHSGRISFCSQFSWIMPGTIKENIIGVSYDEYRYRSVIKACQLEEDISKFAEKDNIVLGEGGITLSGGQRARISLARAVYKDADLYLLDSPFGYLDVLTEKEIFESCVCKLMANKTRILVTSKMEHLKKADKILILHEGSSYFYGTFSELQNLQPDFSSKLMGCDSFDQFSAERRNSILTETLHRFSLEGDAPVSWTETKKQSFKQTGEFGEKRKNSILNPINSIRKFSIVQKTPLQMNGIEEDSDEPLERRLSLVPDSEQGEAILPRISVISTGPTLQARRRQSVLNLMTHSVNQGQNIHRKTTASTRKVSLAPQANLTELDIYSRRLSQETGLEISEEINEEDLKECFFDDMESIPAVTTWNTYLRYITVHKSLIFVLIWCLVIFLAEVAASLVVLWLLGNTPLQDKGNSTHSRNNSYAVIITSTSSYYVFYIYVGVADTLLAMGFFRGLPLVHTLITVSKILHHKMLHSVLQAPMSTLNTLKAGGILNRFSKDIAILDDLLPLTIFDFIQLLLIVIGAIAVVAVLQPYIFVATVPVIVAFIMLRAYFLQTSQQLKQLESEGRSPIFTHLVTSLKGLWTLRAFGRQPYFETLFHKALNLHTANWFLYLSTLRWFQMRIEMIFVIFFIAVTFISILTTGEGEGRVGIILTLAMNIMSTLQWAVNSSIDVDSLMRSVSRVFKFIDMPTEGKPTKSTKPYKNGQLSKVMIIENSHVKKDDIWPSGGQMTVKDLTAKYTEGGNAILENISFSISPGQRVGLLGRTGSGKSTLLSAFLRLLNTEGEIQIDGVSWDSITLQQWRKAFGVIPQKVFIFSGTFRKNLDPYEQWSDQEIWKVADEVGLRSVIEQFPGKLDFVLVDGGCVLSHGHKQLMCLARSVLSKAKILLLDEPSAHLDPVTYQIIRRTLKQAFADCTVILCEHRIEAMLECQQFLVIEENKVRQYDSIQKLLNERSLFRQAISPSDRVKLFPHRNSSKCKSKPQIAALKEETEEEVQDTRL
Test Name: CFTR cell surface levels using HRP-tagged ΔF508-CFTR expressing CFBE cells, in the presence of a co-corrector
Format: cell-based
Measurement Conditions: HRP-tagged ΔF508-CFTR expressing CFBE cells, in the presence of 3 μM co-corrector; read-out: EC50
// values below are reported EC50
Quick note: give the figure in nM, leave out the unit.

**Query** Please give the measured EC50 for this molecule: "CCOCC1(F)CCN(c2cc(C(=O)O)nc3c2c(C2CCC2)nn3-c2ccccc2)CC1"
**Result** 343

**Query** What would you report for "CC1(F)CN(c2cc(C(=O)O)nc3c2c(C2CCC2)nn3-c2ccccc2)C1" ?
**Result** 874

**Query** Quick one: "COCCN(C)c1ccc(-c2cc(C(=O)O)nc3c2c(C(C)C)nn3C2CCCCC2)cn1"
**Result** 504

**Query** What about "COC1CN(c2cccc(-n3nc(C(C)C)c4c(-c5ccc(N6CCOCC6)cc5)cc(C(=O)O)nc43)c2)C1" ?
**Result** 375

====

A collection of compounds and their measured % Activation
Target Entity: ΔF508-CFTR (Homo sapiens, UniProt P13569, DEL508-508)
Construct: host or cells: CFBE41o-, doxycycline-inducible
Test Name: CFTR cell surface levels using HRP-tagged ΔF508-CFTR expressing CFBE cells, in the presence of a co-corrector
Assay type: cell-based
Measurement Conditions: HRP-tagged ΔF508-CFTR expressing CFBE cells, in the presence of 3 μM co-corrector

Below, 3 compounds whose answers are already recorded.
>>> print(df.to_string())
                            compound_string                             target_entity  reported_result
0  CCN(CC)C1CCN(c2cc(C(=O)O)nc3c2c(C2CCC2)nn3-c2ccccc2)CC1  ΔF508-CFTR (Homo sapiens, UniProt P13569, DEL508-508)             329%
1  O=C(O)c1cc(N2CCN(C(=O)CN3CCOCC3)CC2)c2c(C3CCC3)nn(-c3ccccc3)c2n1  ΔF508-CFTR (Homo sapiens, UniProt P13569, DEL508-508)             254%
2  CS(=O)(=O)C1(COc2cc(C(=O)O)nc3c2c(C2CCC2)nn3-c2ccccc2)CCC1  ΔF508-CFTR (Homo sapiens, UniProt P13569, DEL508-508)          129.55%

Next, consider the following compound.
**Query** Give the measured % Activation of "CC(C)c1nn(C2CCCCC2)c2nc(C(=O)O)cc(-c3ccc4c(c3)CNC4=O)c12" .
**Result** 282.3%

====

Target Entity: ΔF508-CFTR (Homo sapiens, UniProt P13569, DEL508-508)
Construct: host or cells: CFBE41o-, doxycycline-inducible
Test Name: CFTR cell surface levels using HRP-tagged ΔF508-CFTR expressing CFBE cells, intrinsic corrector capacity
Format: cell-based
Measurement Conditions: HRP-tagged ΔF508-CFTR expressing CFBE cells; intrinsic corrector capacity (no co-corrector); 33° C., 20 hours; read-out: EC50
EC50 vs 600 nM: less than gives yes; not less than gives no.

Example cases with answers are listed next.
                                   compound  discrete_label
0  CC(C)c1nn(-c2ccc(F)cc2)c2nc(C(=O)O)cc(N3CCC(C(C)(C)O)CC3)c12             yes
1  O=C(O)c1cc(N2CC3CC3C2)c2c(C3CCC3)nn(-c3ccccc3)c2n1 (stereo not shown)              no
2  COC1CCN(CC2CCN(c3cc(C(=O)O)nc4c3c(C3CCC3)nn4-c3ccccc3)CC2)CC1             yes
3  O=C(O)c1cc(N2CCC(N3CCCCC3)CC2)c2c(C3CCC3)nn(-c3ccc(F)cc3)c2n1              no
4  COCC1CN(c2cc(C(=O)O)nc3c2c(C2CCC2)nn3-c2ccccc2)C1              no

**Query** # TODO verify EC50 < 600 nM strictly for this compound: "N#CC1CCN(c2ccc(-c3cc(C(=O)O)nc4c3c([C@H]3C[C@@H](F)C3)nn4-c3ccccc3)cn2)CC1"
**Result** yes

**Query** Another compound: COCC1CN(C2CCN(c3cc(C(=O)O)nc4c3c(C3CCC3)nn4-c3ccc(F)cc3)CC2)CCO1 (stereo not shown)
**Result** yes

**Query** Input "COCCC1(CCOc2cc(C(=O)O)nc3c2c(C2CCC2)nn3-c2ccccc2)CC1"
**Result** no

====

Target Entity: ΔF508-CFTR (Homo sapiens, UniProt P13569, DEL508-508)
Construct: host or cells: CFBE41o-, doxycycline-inducible
Test Name: CFTR cell surface levels using HRP-tagged ΔF508-CFTR expressing CFBE cells, intrinsic corrector capacity
Format: cell-based
Measurement Conditions: HRP-tagged ΔF508-CFTR CFBE41o- cells, compounds alone (intrinsic corrector capacity), 20 hours at 33° C.; read-out: EC50
pEC50 values, listed per item
Please note pEC50 is a logarithmic value: minus log10 of concentration in mol/L. Answer with that number alone.

Some entries whose results are on file:
                                   compound  reported_result
0  CC(C)OC1CCN(c2cc(C(=O)O)nc3c2c(C2CCC2)nn3-c2ccccc2)CC1             6.58
1  Cc1nn(-c2ccccc2)c2nc(C(=O)O)cc(N3CCCCC3)c12             5.48
2  COC(=O)N1CC(c2nn(C3CCCCC3)c3nc(C(=O)O)cc(-c4cnc(N(C)C)nc4)c23)C1             5.48
3  CC1CN(c2ccc(-c3cc(C(=O)O)nc4c3c(C(C)C)nn4C3CCCCC3)cn2)CC(C)O1 (stereo not shown)             6.26

**Query** I have this compound here, "CC(C)c1nn(-c2ccc(F)c(F)c2)c2nc(C(=O)O)cc(-c3ccc(N4CCC(C#N)CC4)nc3)c12" , and I need its recorded pEC50.
**Result** 6.05

**Query** Then this compound: "CCOC(=O)c1nn(-c2ccccc2)c2nc(C(=O)O)cc(-c3ccc(N4CCOCC4)cc3)c12"
**Result** 5.48

**Query** And "O=C(O)c1cc(-c2ccc(N3CCOCC3)cc2)c2c(C3CCC3)nn(-c3ccc(C(F)(F)F)cc3)c2n1" ?
**Result** 6.31

====

Target Entity: CFTR ΔF508 (Homo sapiens, UniProt P13569, DEL508-508)
Construct: bronchial epithelial cells isolated from CF patients homozygous for the CFTR ΔF508 mutation; McGill University; Asterand; University of North Carolina hAEC-CF; host or cells: primary human bronchial epithelial cells from CF patients homozygous for ΔF508
Test Name: Chronic TECC assay on primary bronchial epithelial cells (corrector, co-corrector and potentiator)
Type: cell-based
Measurement Conditions: chronic TECC; Ieq = calculations based on the maximum current; with co-corrector and potentiator, 24 hours; read-out: EC50 (nM) (Ieq)
Description: Primary Bronchial Epithelial Cells Protocol The TECC (Tranepithelial Clamp Circuit, EP-design) assay measures the functionality of the cystic fibrosis Transmembrane Conductance regulator (CFTR) by measuring the short circuit current (Isc) generated over the basolateral and apical membrane of lung epithelial cells. In TECC the transepithelial potential PD and transepithelial resistance (Rt)) are measured in an open circuit and transformed to Ieq using Ohm's law. […]
Reported Property: EC50 (nM)
Give the value in nM but do not write nM after it.

Below, 2 molecules whose answers are already recorded.
In [3]: df
Out[3]:
                            compound_string                             target_entity  reported_result
0  N#CC1CCN(c2ccc(-c3cc(C(=O)O)nc4c3c(C3CCC3)nn4C3CCCCC3)cn2)CC1  CFTR ΔF508 (Homo sapiens, UniProt P13569, DEL508-508)              120
1  Cc1cccc(-n2nc(C(C)C)c3c(N4CCC(C#N)CC4)cc(C(=O)O)nc32)c1  CFTR ΔF508 (Homo sapiens, UniProt P13569, DEL508-508)               50

For the next question, use this molecule.
**Query** What does the data say about its EC50? Entry: "COCC1CCN(c2cc(C(=O)O)nc3c2c(C(C)C)nn3-c2cccc(C)c2)CC1"
**Result** 30

====

Target Entity: ΔF508-CFTR (Homo sapiens, UniProt P13569, DEL508-508)
Construct: host or cells: CFBE41o-, doxycycline-inducible
Test Name: CFTR cell surface levels using HRP-tagged ΔF508-CFTR expressing CFBE cells, intrinsic corrector capacity
Assay type: cell-based
Measurement Conditions: HRP-tagged ΔF508-CFTR expressing CFBE cells; intrinsic corrector capacity (no co-corrector); 33° C., 20 hours
Reported Property: % Activation (%)
Report the value in % with no unit label.

>>> print(df.to_string())
                                   compound  units_symbol  reported_result
0  O=C(O)c1cc(N2CCC(N3CCOCC3)CC2)c2c(C3CCC3)nn(-c3ccc(F)cc3)c2n1             %            279.5
1  O=C(O)c1cc(N2CC3CC3C2)c2c(C3CCC3)nn(-c3ccccc3)c2n1 (stereo not shown)             %            182.5
2  CN(C)CCCCOc1cc(C(=O)O)nc2c1c(C1CCC1)nn2-c1ccccc1             %            104.6
3  O=C(O)c1cc(N2CCCCC2)c2c(C3CCC3)nn(-c3ccccc3)c2n1             %           141.15
4  O=C(O)c1cc(OC2CCC(F)(F)CC2)c2c(C3CCC3)nn(-c3ccccc3)c2n1             %            118.2
5  CCCCN1CCCN(c2cc(C(=O)O)nc3c2c(C(C)C)nn3-c2ccc(F)cc2)CC1             %            79.69

**Query** Form field: reported % Activation of "CC(C)c1nn(-c2ccc(F)cc2)c2nc(C(=O)O)cc(OCC3(C)CC(F)(F)C3)c12"
**Result** 130.6

**Query** Likewise for "CO[C@@H]1CCN(CC2CCN(c3cc(C(=O)O)nc4c3c(C3CCC3)nn4-c3ccccc3)CC2)C1" ?
**Result** 229.35

**Query** What do you have for "O=C(O)c1cc(OCCN2CCS(=O)(=O)CC2)c2c(C3CCC3)nn(-c3ccccc3)c2n1" ?
**Result** 24.16

**Query** Then "O=C(O)c1cc(N2CCC(CN3CC[C@H](F)C3)CC2)c2c(C3CCC3)nn(-c3ccccc3)c2n1" ?
**Result** 231.9
